B1: glmS ribozyme (parent)
chain: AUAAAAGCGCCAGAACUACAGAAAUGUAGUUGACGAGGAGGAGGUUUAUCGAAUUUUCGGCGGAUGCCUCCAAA

# Variants of: B1
# test.name: self-cleavage kobs at 10000 uM GlcN6P; higher = faster cleavage; RNA array
# measurement.parameters: with glucosamine-6-phosphate
This sample holds only a part of the variants without activity.
measurement.kind: self-cleavage kobs at 10000 uM GlcN6P

The following variants have reported results that may help.
variant.designation: G44U U57A U69A
result.value: < 1e-05 s⁻¹

variant.designation: A6C C34U
result.value: < 1e-05 s⁻¹

variant.designation: C34G
result.value: < 1e-05 s⁻¹

variant.designation: A12G A14C U31C U47G A52G G59A G60U
result.value: < 1e-05 s⁻¹

variant.designation: C61G A64G
result.value: < 1e-05 s⁻¹

variant.designation: G7A A53C G63A
result.value: < 1e-05 s⁻¹

variant.designation: G35U A64U
result.value: < 1e-05 s⁻¹

variant.designation: C16U G40C A53C C71U
result.value: 0.000561 s⁻¹

variant.designation: A14C U31A U54A
result.value: 0.0192 s⁻¹

variant.designation: G37C G59U C61G
result.value: < 1e-05 s⁻¹

[in] For the variant U30G U46G , what self-cleavage kobs at 10000 uM GlcN6P is on record?
[out] 0.00181 s⁻¹

[in] For the variant C16A G43C , what self-cleavage kobs at 10000 uM GlcN6P is on record?
[out] < 1e-05 s⁻¹

[in] For the variant C11G G60C , what self-cleavage kobs at 10000 uM GlcN6P is on record?
[out] < 1e-05 s⁻¹

[in] For the variant C16G U47A C61G , what self-cleavage kobs at 10000 uM GlcN6P is on record?
[out] < 1e-05 s⁻¹

[in] For the variant A1C , what self-cleavage kobs at 10000 uM GlcN6P is on record?
[out] 0.0709 s⁻¹

[in] For the variant U55G G59C C70A , what self-cleavage kobs at 10000 uM GlcN6P is on record?
[out] 0.000104 s⁻¹

Where these numbers come from: the supplement of paper PMC7125110
